These data points were gathered from ChEMBL document CHEMBL4152332.

Test system: NCI-H1975
Assay: Antiproliferative activity against human NCI-H1975 cells after 72 hrs by MTT assay
Format: functional, cell-based
Conditions: NCI-H1975, 72 h
Some compounds, each annotated with its measured IC50.

In [3]: df
Out[3]:
                                   compound  assay_target  test_value
0  C=CCc1ccc(O)c(-c2cc(CC=C)cc(CN3CCC(NC(=O)C=C)CC3)c2O)c1     NCI-H1975     > 20 µM
1  C=CCc1ccc(O)c(-c2cc(CC=C)cc(CN3CCCC(N)C3)c2O)c1 (stereo not given)     NCI-H1975     4.82 µM
2  C=CCc1cc(-c2cc(/C=C/CO)ccc2O)c(O)c([C@@H]2C=C(C)CC[C@H]2C(C)C)c1     NCI-H1975     > 40 µM
3        C=CCc1cc(-c2cc(/C=C/CO)ccc2O)ccc1O     NCI-H1975     34.5 µM
4  C=CCc1ccc(O)c(-c2cc(CC=C)cc(CN3CCCC(CO)C3)c2O)c1 (stereo not given)     NCI-H1975     > 20 µM

Query block: Would you mind telling me what IC50 value was observed for C=CCc1ccc(O)c(-c2cc(CC(O)CO)ccc2O)c1 (stereo not given) ?
Result block: > 40 µM

Query block: Again, but for `C=CCc1ccc(O)c(-c2cc(CC=C)cc(CN3CCN(C(=O)OCC)CC3)c2O)c1`
Result block: > 20 µM

Query block: Moving on to the next compound: `C=CCc1ccc(O)c(-c2cc(CC=C)cc(CN3CCN(c4ccccc4)CC3)c2O)c1`
Result block: > 20 µM

Query block: Thanks! And `C=CCc1cc(-c2cc(C(=O)O)ccc2O)ccc1O` ?
Result block: > 40 µM

Query block: Next record, please: `C=CCc1ccc(O)c(-c2cc(CC=C)cc(CN3CCC(CN)CC3)c2O)c1`
Result block: > 20 µM

----------
Test system: NCI-H1975
Assay: Antiproliferative activity against human NCI-H1975 cells after 72 hrs by MTT assay
Assay type: functional, cell-based
Conditions: NCI-H1975, 72 h
Readout Label: IC50

                                   molecule  test_value
0  C=CCc1cc(-c2ccc(O)c(CC=C)c2)c(O)c([C@@H]2C=C(C)CC[C@H]2C(C)C)c1     26.7 µM

Query block: Could you tell me which IC50 is on file for `C=CCc1ccc(O)c(-c2cc(CC=C)cc(CN3CCN(CCCO)CC3)c2O)c1` ?
Result block: > 20 µM

Query block: How about this molecule: C=CCc1ccc(O)c(-c2cc(CC=C)cc(CN3CCCC(NC(=O)C=C)C3)c2O)c1 (stereo not given)
Result block: > 20 µM

Query block: Entry to check: `C=CCc1ccc(O)c(-c2cc(/C=C/CO)ccc2O)c1`
Result block: > 40 µM

Query block: Then `C=CCc1ccc(O)c(-c2cc(CC=C)cc(CN3CCN(CC=C)CC3)c2O)c1` ?
Result block: > 20 µM

Query block: Next up: `C=CCc1ccc(O)c(-c2cc(CC=C)cc(CN3CCC(C(=O)OCC)CC3)c2O)c1`
Result block: > 20 µM

Query block: Next up: C=CCc1cc(-c2cc(O)ccc2O)ccc1O [MAGNATRIOL B]
Result block: > 40 µM

Query block: And `C=CCc1ccc(O)c(-c2cc(CC=C)cc(CN3CCN(C(=O)N(C)C)CC3)c2O)c1` ?
Result block: > 20 µM

Query block: Also check C=CCc1cc(-c2cc(CC(O)CO)ccc2O)ccc1O (stereo not given) [MAGNOLIGNAN]
Result block: > 40 µM

Query block: Now the same for `C=CCc1ccc(O)c(-c2cc(CC=C)cc(CN3CCN(Cc4ccccc4)CC3)c2O)c1`
Result block: > 20 µM

Query block: Same for `C=CCc1ccc(O)c(-c2cc(CC=C)cc(CN3CCSCC3)c2O)c1`
Result block: > 20 µM

Query block: Also need OCC(O)Cc1ccc(O)c(-c2cc(CC(O)CO)ccc2O)c1 (stereo not given) , thanks.
Result block: > 40 µM
